Test system: HCT 116 cells transfected with a luciferase reporter under the control of an HIF-responsive sequence
protocol-text: HIF-luciferase assay
Assay type: cell-based
assay-setup: Homo sapiens; HCT 116 HIF-luciferase reporter cells, hypoxia chamber (1% O2), 24 h, luminescence
Where a name gives a salt, the structure may show the parent alone.
attribute-measured: pIC50
Units for pIC50: none; it is -log10 of a concentration expressed in mol/L.

Solved cases below.
                                   molecule  measured_result
0  Cc1cc(-c2nc(-c3ccc(OC(F)(F)F)cc3)no2)nn1Cc1cccc(C(=O)N2CCCO2)c1             8.60
1  Cc1cc(-c2nc(-c3cccc(OC(F)(F)F)c3)no2)nn1Cc1cccc(C(=O)N2CCN(C)CC2)c1 [Example 119, hydrochloride]             7.70
2  Cc1cc(-c2nc(-c3ccc(OC(F)(F)F)c(F)c3)no2)nn1Cc1ccnc(N2CCN(C3CC3)CC2)c1             9.10

Attention now shifts to the item below.
Give pIC50 for the following molecule: Cc1cc(-c2nc(-c3ccc(C(C)(C)C)cc3)no2)nn1Cc1ccnc(N2CCN(CC(F)(F)F)CC2)c1 9.30
